- Tgt: UniProtKB Q13822
- Procedure text: Autotaxin Mediated Inhibition of LPA in the Presence of Human Plasma
- Type: biochemical
- Conditions: 90% pooled human plasma, 3 hours at 37° C., total LPA by mass spec
Measure: IC50 (nM)

{"Compound": "O=C(c1cnn(Cc2c[nH]nn2)c1)N1CCc2nc(NC3Cc4ccccc4C3)ncc2C1 [Example 1]", "Measure": "IC50", "Quantitative result": 5.4}
{"Compound": "O=C(c1cc(-c2cnn[nH]2)ccn1)N1CCc2nc(NC3Cc4ccccc4C3)ncc2C1 [Example 9]", "Measure": "IC50", "Quantitative result": 7}

###

- Tgt: recombinant human autotaxin (Homo sapiens (Human))
- Procedure text: Inhibition of Autotaxin as Measured by Choline Release
- Type: biochemical
- Conditions: LPC 16:0 30 μM substrate, 37° C. for 1 hour, 4 parameter curve fit
Listed compounds paired with reported IC50

{"Query smiles": "O=C(c1cc(-c2cnn[nH]2)ccn1)N1CCc2nc(NC3Cc4ccccc4C3)ncc2C1", "Result": "< 1.7 nM"}

Memo: O=C(c1cnn(Cc2c[nH]nn2)c1)N1CCc2nc(NC3Cc4ccccc4C3)ncc2C1 , reported IC50: < 1.7 nM
